biological target: rNav1.2 sodium channels (HEK-293 cells) (Rattus norvegicus, UniProt P04775); test: 5 Hz train protocol, QPatch automated patch-clamp; assay type: cell-based; conditions: 100 μM; Rev = A5/A1 after washout
Sequence (P04775 whole entry): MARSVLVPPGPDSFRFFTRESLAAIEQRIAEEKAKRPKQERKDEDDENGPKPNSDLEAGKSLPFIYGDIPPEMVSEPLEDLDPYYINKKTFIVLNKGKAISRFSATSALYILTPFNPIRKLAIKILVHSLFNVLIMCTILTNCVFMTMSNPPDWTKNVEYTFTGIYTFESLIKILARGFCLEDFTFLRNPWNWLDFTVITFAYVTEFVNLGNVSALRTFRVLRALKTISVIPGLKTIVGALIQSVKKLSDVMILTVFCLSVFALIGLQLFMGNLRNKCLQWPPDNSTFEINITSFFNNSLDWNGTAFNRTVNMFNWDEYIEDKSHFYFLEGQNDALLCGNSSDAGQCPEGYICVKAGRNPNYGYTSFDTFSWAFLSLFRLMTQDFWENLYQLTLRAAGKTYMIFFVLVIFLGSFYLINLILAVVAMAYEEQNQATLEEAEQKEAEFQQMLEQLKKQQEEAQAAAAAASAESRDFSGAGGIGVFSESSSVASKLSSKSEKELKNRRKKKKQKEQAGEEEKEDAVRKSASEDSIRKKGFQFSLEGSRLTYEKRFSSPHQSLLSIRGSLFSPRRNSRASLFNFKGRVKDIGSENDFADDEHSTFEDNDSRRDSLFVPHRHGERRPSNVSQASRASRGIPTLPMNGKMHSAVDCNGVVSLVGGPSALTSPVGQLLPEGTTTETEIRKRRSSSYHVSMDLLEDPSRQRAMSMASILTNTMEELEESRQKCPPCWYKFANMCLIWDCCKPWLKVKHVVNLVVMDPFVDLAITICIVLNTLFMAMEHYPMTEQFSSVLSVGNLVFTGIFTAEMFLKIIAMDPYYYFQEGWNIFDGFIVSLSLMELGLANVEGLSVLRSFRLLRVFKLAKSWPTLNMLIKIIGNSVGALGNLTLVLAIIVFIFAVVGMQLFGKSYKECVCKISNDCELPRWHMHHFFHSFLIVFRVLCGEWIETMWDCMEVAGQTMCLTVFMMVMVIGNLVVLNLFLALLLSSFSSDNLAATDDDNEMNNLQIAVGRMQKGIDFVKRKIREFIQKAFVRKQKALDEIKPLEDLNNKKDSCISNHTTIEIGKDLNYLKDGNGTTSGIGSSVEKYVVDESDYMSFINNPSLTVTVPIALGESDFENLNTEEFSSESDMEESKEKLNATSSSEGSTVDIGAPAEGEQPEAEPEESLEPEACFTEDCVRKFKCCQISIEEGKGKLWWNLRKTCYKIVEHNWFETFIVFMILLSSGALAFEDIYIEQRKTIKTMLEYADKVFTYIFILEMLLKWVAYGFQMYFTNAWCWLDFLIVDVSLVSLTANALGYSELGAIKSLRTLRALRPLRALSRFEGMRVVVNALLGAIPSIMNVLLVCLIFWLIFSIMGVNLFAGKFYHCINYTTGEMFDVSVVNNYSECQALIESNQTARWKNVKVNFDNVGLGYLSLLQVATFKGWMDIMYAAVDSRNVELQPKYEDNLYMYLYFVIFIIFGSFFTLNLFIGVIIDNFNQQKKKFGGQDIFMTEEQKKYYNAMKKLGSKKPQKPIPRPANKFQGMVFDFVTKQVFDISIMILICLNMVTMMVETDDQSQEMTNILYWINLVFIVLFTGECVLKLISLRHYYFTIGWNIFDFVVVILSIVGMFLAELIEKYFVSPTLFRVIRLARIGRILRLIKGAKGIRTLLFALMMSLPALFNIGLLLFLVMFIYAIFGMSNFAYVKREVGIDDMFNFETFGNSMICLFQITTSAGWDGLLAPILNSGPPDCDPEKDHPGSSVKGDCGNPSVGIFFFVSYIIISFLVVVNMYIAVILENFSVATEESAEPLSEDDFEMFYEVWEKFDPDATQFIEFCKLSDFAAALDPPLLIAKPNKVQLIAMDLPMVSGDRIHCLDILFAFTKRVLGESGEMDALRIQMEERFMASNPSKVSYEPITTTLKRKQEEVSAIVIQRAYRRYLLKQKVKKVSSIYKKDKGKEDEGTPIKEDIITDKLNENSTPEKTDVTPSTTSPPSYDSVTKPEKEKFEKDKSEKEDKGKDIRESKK
Lab note: anything with Rev (reversibility) below 0.9 is marked Condition met; values at 0.9 or higher are marked Condition not met.

Query block: Below 0.9 on Rev (reversibility)? Entry C[Si](C)(Cc1ccc(F)cc1)CN1CCCCC1
Result block: Condition met

Query block: Is it true that Rev (reversibility) reported for O=C(O)Cc1ccccc1Nc1c(Cl)cccc1Cl is less than 0.9?
Result block: Condition not met

Query block: Quick check: Rev (reversibility) of CCCCN1CCCCC1C(=O)Nc1c(C)cccc1C (centres unmarked) under 0.9?
Result block: Condition met

Query block: State whether 0.9 exceeds Rev (reversibility) recorded for Nc1c(Br)cc(Br)cc1CN[C@H]1CC[C@H](O)CC1 .
Result block: Condition met

Query block: Dear colleague, could you confirm whether Rev (reversibility) of CC12CC3CC(C)(C1)CC(N)(C3)C2 [MEM, Memantine] falls below 0.9? Thanks.
Result block: Condition not met

Query block: hey, is Rev (reversibility) for Cc1ccc(C(=O)C(C)CN2CCCCC2)cc1 (centres unmarked) lower than 0.9 or not?
Result block: Condition not met

Query block: Is it true that Rev (reversibility) reported for CNCCC(Oc1ccccc1OC)c1ccccc1 (centres unmarked) is less than 0.9?
Result block: Condition met

Recorded values, source paper PMC3004914.
